experimental-target: Coagulation factor X (Homo sapiens) (UniProt P00742)
Sequence (P00742 41-179 limits assumed): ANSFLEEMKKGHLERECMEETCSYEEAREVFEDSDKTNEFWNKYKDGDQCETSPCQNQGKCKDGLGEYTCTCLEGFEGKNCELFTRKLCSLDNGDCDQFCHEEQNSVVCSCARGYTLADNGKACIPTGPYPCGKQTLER
Sequence (P00742 235-488 limits assumed): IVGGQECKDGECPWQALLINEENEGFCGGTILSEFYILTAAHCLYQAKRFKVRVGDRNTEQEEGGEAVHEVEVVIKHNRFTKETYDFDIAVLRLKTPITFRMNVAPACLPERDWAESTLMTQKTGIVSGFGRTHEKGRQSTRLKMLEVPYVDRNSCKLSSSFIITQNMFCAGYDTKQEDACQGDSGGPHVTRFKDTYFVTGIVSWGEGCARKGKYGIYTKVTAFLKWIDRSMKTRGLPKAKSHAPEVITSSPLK
protocol-details: Compound was evaluated for the inhibition of anti-thrombin III (AT III)-mediated coagulation proteinase factor Xa

- compound-string: "CO[C@H]1O[C@H](COS(=O)(=O)O)[C@@H](O[C@@H]2O[C@@H](C(=O)O)[C@@H](O[C@@H]3O[C@H](COS(=O)(=O)O)[C@@H](O[C@@H]4O[C@H](C(=O)O)[C@@H](O[C@@H]5O[C@H](COS(=O)(=O)O)[C@@H](OC)[C@H](OC)[C@H]5OS(=O)(=O)O)[C@H](OC)[C@H]4OC)[C@H](OS(=O)(=O)O)[C@H]3OS(=O)(=O)O)[C@H](OCCCc3ccccc3)[C@H]2OS(=O)(=O)O)[C@H](OS(=O)(=O)O)[C@H]1OS(=O)(=O)O"
  Activity, U mg-1: 434

* * *

experimental-target: Coagulation factor X (Homo sapiens) (UniProt P00742)
protocol-details: Compound was evaluated for the inhibition of anti-thrombin III (AT III)-mediated coagulation proteinase factor Xa
Recorded Activity, one value per entry.
measure-name: Activity (U mg-1)

- compound-string: "CCCCCCCCO[C@@H]1[C@@H](OS(=O)(=O)O)[C@H](O[C@H]2[C@H](OS(=O)(=O)O)[C@@H](OS(=O)(=O)O)[C@@H](OC)O[C@@H]2COS(=O)(=O)O)O[C@@H](C(=O)O)[C@H]1O[C@@H]1O[C@H](COS(=O)(=O)O)[C@@H](O[C@@H]2O[C@H](C(=O)O)[C@@H](O[C@@H]3O[C@H](COS(=O)(=O)O)[C@@H](OC)[C@H](OC)[C@H]3OS(=O)(=O)O)[C@H](OCCCC)[C@H]2OCCCC)[C@H](OS(=O)(=O)O)[C@H]1OS(=O)(=O)O"
  measure-name: "Activity"
  value-unit: "U mg-1"
  reading: 700
- compound-string: "CCCCO[C@@H]1[C@@H](OS(=O)(=O)O)[C@H](O[C@H]2[C@H](OC)[C@@H](OC)[C@H](O[C@H]3[C@H](OS(=O)(=O)O)[C@@H](OS(=O)(=O)O)[C@H](O[C@H]4[C@H](OC)[C@@H](OS(=O)(=O)O)[C@H](O[C@H]5[C@H](OS(=O)(=O)O)[C@@H](OS(=O)(=O)O)[C@@H](OC)O[C@@H]5COS(=O)(=O)O)O[C@H]4C(=O)O)O[C@@H]3COS(=O)(=O)O)O[C@@H]2C(=O)O)O[C@H](COS(=O)(=O)O)[C@H]1OCCCC"
  measure-name: "Activity"
  value-unit: "U mg-1"
  reading: 1500
- compound-string: "CCCCO[C@@H]1[C@@H](OCCCC)[C@H](O[C@H]2[C@H](OS(=O)(=O)O)[C@@H](OS(=O)(=O)O)[C@H](O[C@H]3[C@H](OC)[C@@H](OS(=O)(=O)O)[C@H](O[C@H]4[C@H](OS(=O)(=O)O)[C@@H](OS(=O)(=O)O)[C@@H](OC)O[C@@H]4COS(=O)(=O)O)O[C@H]3C(=O)O)O[C@@H]2COS(=O)(=O)O)O[C@H](C(=O)O)[C@H]1O[C@@H]1O[C@H](COS(=O)(=O)O)[C@@H](OC)[C@H](OC)[C@H]1OS(=O)(=O)O"
  measure-name: "Activity"
  value-unit: "U mg-1"
  reading: 1100
- compound-string: "CO[C@H]1O[C@H](COS(=O)(=O)O)[C@@H](O[C@@H]2O[C@@H](C(=O)O)[C@@H](O[C@@H]3O[C@H](COS(=O)(=O)O)[C@@H](O[C@@H]4O[C@H](C(=O)O)[C@@H](O[C@@H]5O[C@H](COS(=O)(=O)O)[C@@H](O)[C@H](O)[C@H]5NS(=O)(=O)O)[C@H](O)[C@H]4O)[C@H](OS(=O)(=O)O)[C@H]3NS(=O)(=O)O)[C@H](O)[C@H]2OS(=O)(=O)O)[C@H](OS(=O)(=O)O)[C@H]1NS(=O)(=O)O"
  measure-name: "Activity"
  value-unit: "U mg-1"
  reading: 1250
- compound-string: "CCCCO[C@@H]1[C@@H](OS(=O)(=O)O)[C@H](O[C@H]2[C@H](OS(=O)(=O)O)[C@@H](OS(=O)(=O)O)[C@@H](OC)O[C@@H]2COS(=O)(=O)O)O[C@@H](C(=O)O)[C@H]1O[C@@H]1O[C@H](COS(=O)(=O)O)[C@@H](O[C@@H]2O[C@H](C(=O)O)[C@@H](O[C@@H]3O[C@H](COS(=O)(=O)O)[C@@H](OC)[C@H](OC)[C@H]3OS(=O)(=O)O)[C@H](OC)[C@H]2OC)[C@H](OS(=O)(=O)O)[C@H]1OS(=O)(=O)O"
  measure-name: "Activity"
  value-unit: "U mg-1"
  reading: 994
- compound-string: "CO[C@H]1O[C@H](COS(=O)(=O)O)[C@@H](O[C@@H]2O[C@@H](C(=O)O)[C@@H](O[C@@H]3O[C@H](COS(=O)(=O)O)[C@@H](O[C@@H]4O[C@H](C(=O)O)[C@@H](O[C@@H]5O[C@H](COS(=O)(=O)O)[C@@H](OC)[C@H](OC)[C@H]5OS(=O)(=O)O)[C@H](OC)[C@H]4OC)[C@H](OS(=O)(=O)O)[C@H]3OS(=O)(=O)O)[C@H](OC)[C@H]2OS(=O)(=O)O)[C@H](OS(=O)(=O)O)[C@H]1OS(=O)(=O)O"
  measure-name: "Activity"
  value-unit: "U mg-1"
  reading: 1320

Attribution: ChEMBL document CHEMBL1126461
